Values were extracted from patent US20110143948A1.

System: ncRNAs (SEQ ID NO 28-89)
Experiment: ncRNA arrays of melanocytes, keratinocytes, normal skin, melanoma cell lines and patient samples
Parameters: species or system human
Details: melanoma patient 6 sample compared to normal skin
Please go through the items and note down their ncRNA array expression, patient 6.
Numbers only.

substance	subjectOfTest	ncRNA array expression, patient 6
SEQ ID NO 78 (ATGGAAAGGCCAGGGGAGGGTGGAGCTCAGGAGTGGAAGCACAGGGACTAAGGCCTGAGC; listed as DNA, chemistry not given here; listed as Homo sapiens)	ncRNAs (SEQ ID NO 28-89)	−1.8308
SEQ ID NO 81 (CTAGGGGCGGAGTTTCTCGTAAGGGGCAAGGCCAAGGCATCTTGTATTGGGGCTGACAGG; listed as DNA, chemistry not given here; listed as Homo sapiens)	ncRNAs (SEQ ID NO 28-89)	−1.776
SEQ ID NO 66 (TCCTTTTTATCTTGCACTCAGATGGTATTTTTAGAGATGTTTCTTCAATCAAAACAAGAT; listed as DNA, chemistry not given here; listed as Homo sapiens)	ncRNAs (SEQ ID NO 28-89)	2.127
SEQ ID NO 38 (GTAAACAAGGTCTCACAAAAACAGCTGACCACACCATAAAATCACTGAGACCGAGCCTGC; listed as DNA, chemistry not given here; listed as Homo sapiens)	ncRNAs (SEQ ID NO 28-89)	−1.615
SEQ ID NO 44 (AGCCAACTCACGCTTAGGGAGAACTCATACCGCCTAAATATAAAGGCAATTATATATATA; listed as DNA, chemistry not given here; listed as Homo sapiens)	ncRNAs (SEQ ID NO 28-89)	−1.08
SEQ ID NO 40 (GTTAAAGACTAAATTAGTGATTTGGGAGATCAAGCCAATGGGCTTGTCTAAAACCTAGTC; listed as DNA, chemistry not given here; listed as Homo sapiens)	ncRNAs (SEQ ID NO 28-89)	1.498
SEQ ID NO 46 (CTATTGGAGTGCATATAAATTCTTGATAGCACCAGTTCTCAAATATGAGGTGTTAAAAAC; listed as DNA, chemistry not given here; listed as Homo sapiens)	ncRNAs (SEQ ID NO 28-89)	0.04368
SEQ ID NO 39 (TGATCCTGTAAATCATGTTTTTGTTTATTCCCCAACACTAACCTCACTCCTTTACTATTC; listed as DNA, chemistry not given here; listed as Homo sapiens)	ncRNAs (SEQ ID NO 28-89)	−0.9404

List the reported ncRNA array expression, patient 6 of each substance below.
1. SEQ ID NO 74 (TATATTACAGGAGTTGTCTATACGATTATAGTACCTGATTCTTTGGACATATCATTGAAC; listed as DNA, chemistry not given here; listed as Homo sapiens)
2. SEQ ID NO 64 (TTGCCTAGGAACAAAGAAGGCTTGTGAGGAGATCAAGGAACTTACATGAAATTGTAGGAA; listed as DNA, chemistry not given here; listed as Homo sapiens)

Given back:
[0.8281, 1.8]

----------
Test system: ncRNAs (SEQ ID NO 28-89)
Experiment: ncRNA arrays of melanocytes, keratinocytes, normal skin, melanoma cell lines and patient samples
Parameters: species or system human
Conditions: melanoma patient 27 sample compared to normal skin
Description: An ncRNA array platform that contains over 10,000 putative (>200 nt) ncRNAs including most of the known ncRNAs in mouse and human was conducted to evaluate ncRNAs within melanoma. Lack of coding potential was estimated by an algorithm that scores various characteristics of protein-coding genes, including open reading frame length, synonymous/non-synonymous base substitution rates and similarity to known proteins. […]
assayReadout: ncRNA array expression, patient 27
Numbers only.

Examples from the recorded data:
substance	reported
SEQ ID NO 44 (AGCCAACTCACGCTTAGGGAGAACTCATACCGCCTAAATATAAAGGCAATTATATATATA; listed as DNA, chemistry not given here; listed as Homo sapiens)	−1.744
SEQ ID NO 63 (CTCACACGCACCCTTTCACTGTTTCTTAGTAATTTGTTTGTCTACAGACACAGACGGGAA; listed as DNA, chemistry not given here; listed as Homo sapiens)	−1.525

Turning to the following substance.
Asked: Fill in ncRNA array expression, patient 27 for record SEQ ID NO 46 (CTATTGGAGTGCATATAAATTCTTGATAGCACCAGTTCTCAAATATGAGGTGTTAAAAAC; listed as DNA, chemistry not given here; listed as Homo sapiens)
Given back: 1.824
